The values you see were collected from the supplement of paper PMC8728848.

# study-system: GlcNAc(b1-3)Gal(b1-4)GlcNAc(b1-2)[GlcNAc(b1-3)Gal(b1-4)GlcNAc(b1-6)]Man(a1-6)[GlcNAc(b1-3)Gal(b1-4)GlcNAc(b1-2)Man(a1-3)]Man(b1-4)GlcNAc(b1-4)GlcNAc
# experiment-summary: glycan array binding signal (z-score within array); higher = stronger binding
# condition-description: glycan notation: IUPAC condensed, linker removed
The entries come from a sample that favours the strongest signals as a whole.
Measured glycan array binding signal (z-score) values are reported for all entries that follow.

{"binder": "TIM1 (protein) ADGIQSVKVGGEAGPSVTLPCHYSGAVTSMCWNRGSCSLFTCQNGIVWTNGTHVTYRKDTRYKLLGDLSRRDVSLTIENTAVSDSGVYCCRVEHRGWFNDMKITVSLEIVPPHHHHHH", "glycan array binding signal (z-score)": 1.97}
{"binder": "Clrb (Mus musculus) (protein) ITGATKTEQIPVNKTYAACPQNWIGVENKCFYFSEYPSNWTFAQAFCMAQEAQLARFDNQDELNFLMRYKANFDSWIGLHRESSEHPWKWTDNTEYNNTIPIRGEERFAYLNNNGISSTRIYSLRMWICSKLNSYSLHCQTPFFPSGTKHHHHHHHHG", "glycan array binding signal (z-score)": 0.54}
{"binder": "Langerin K299A/K313A (Homo sapiens), Q9UJ71 (protein) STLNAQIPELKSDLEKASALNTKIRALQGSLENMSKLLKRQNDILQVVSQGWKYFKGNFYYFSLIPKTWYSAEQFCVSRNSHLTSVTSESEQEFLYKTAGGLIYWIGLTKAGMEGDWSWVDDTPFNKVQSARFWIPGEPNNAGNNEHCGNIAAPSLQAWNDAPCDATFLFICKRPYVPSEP", "glycan array binding signal (z-score)": 3.64}
